- Substrate: NCCc1c[nH]c2ccc(O)cc12
- assay-remarks: colorimetric assay of CoASH release, non-linear regression
- Format: biochemical, Sparus aurata
- measurement-setup: near-saturating AcCoA; apparent Km
metric-name: Km (µM)
// note: answer is a bare numeric in µM

protein	measurement-unit	meas-value
AANAT2 (Sparus aurata; G73T/L69R/N70H/Q74L) (protein) MTQQVSGSPFFKPFFLKTPVSLLRQRRHTLPASEFRNLTPQDAISVFEIEREAFVSVSGECPLTLDEVRHFLTLCPELSLGWFEEGQLVAFIIGSGWGKERLSQEAMTQHVPDSPAVHIHVLSVHRHCRQQGKGSILLWRFLQYLRCIPGLRRALLICEEYLVPFYQKAGFKEKGPSAISISNMQFQEMEYTIGGQAYTRRNSGC	µM	880
AANAT2 (Sparus aurata) (protein) MTQQVSGSPFFKPFFLKTPVSLLRQRRHTLPASEFRNLTPQDAISVFEIEREAFVSVSGECPLTLDEVLNFLGQCPELSLGWFEEGQLVAFIIGSGWGKERLSQEAMTQHVPDSPAVHIHVLSVHRHCRQQGKGSILLWRFLQYLRCIPGLRRALLICEEYLVPFYQKAGFKEKGPSAISISNMQFQEMEYTIGGQAYTRRNSGC	µM	2200

Consider now this further protein.
Prompt line: Quick one: Km for AANAT2 (Sparus aurata; S123A) (protein) MTQQVSGSPFFKPFFLKTPVSLLRQRRHTLPASEFRNLTPQDAISVFEIEREAFVSVSGECPLTLDEVLNFLGQCPELSLGWFEEGQLVAFIIGSGWGKERLSQEAMTQHVPDSPAVHIHVLAVHRHCRQQGKGSILLWRFLQYLRCIPGLRRALLICEEYLVPFYQKAGFKEKGPSAISISNMQFQEMEYTIGGQAYTRRNSGC ?
Response line: 650
